System: high affinity tryptophan transporter
Test: Competition of unlabeled substrates with radiolabeled tryptophan uptake, high-affinity system, macrophages
Format: cell-based, human
Conditions: unlabeled competitor vs radiolabeled tryptophan (125 or 250 nM)
quantity-name: competition with tryptophan for the high-affinity system

>>> reported_result("N[C@@H](Cc1c[nH]c2ccc(O)cc12)C(=O)O [5-hydroxy tryptophan]")
"did not compete"
>>> reported_result("NCCc1c[nH]c2ccc(O)cc12 [serotonin]")
"did not compete"
>>> reported_result("CC(=O)N[C@@H](Cc1c[nH]c2ccccc12)C(=O)O [N-acetyl tryptophan]")
"did not compete"

---

Biological target: system L
Assay: Competition of unlabeled substrates with radiolabeled tryptophan uptake, system L component, macrophages
Assay type: cell-based, human
Details: radiolabeled tryptophan 125 nM; read-out: Ki (fit to Equation 1, single-system competitive model)
pKi: −log10 of the molar value.
quantity-name: pKi

>>> reported_result("NC1(C(=O)O)CC2CCC1C2 (centres unmarked) [BCH]")
4.43
